- Test system: mice
- PROTOCOL SUMMARY: Tail-flick test
- Format: in vivo
- MEASUREMENT CONTEXT: Mus musculus, sc, 20 min, s.c., tail-flick test, 20 min after dosing, read-out: ED50 (95% CL) TF
ATTRIBUTE MEASURED: ED50 (mg/kg)
The figure you give is taken to be in mg/kg; do not add the unit.

Solved cases (3 shown):
[[record]]
molecule = "COc1ccc2c(c1OC)C13C=C(C(N)=O)CCC1(OC)C(C2)N(C)CC3 (stereo not shown) [compound 4]"
reading_unit = "mg/kg"
experimental_value = 1.34

[[record]]
molecule = "COc1ccc2c3c1O[C@H]1C(=O)CC[C@@]4(OC)[C@@H](C2)N(C)CC[C@]314 [14-OMC, 14-O-methyloxycodone, reference compound]"
reading_unit = "mg/kg"
experimental_value = 0.8

[[record]]
molecule = "COc1ccc2c3c1OC1C(C#N)=CCC4(OC)C(C2)N(C)CCC314 (stereo not shown) [compound 6]"
reading_unit = "mg/kg"
experimental_value = 0.12


Let's switch to this molecule now.
[Q] What value of measured ED50 is listed for COc1ccc2c(c1OC)C13C=C(C#N)C=CC1(OC)C(C2)N(C)CC3 (stereo not shown) [compound 5] ?
[A] 0.04
